# System: IL-12 induced STAT4 phophorylation mediated by Tyk2/JAK2 (heterodimeric complex)
# ASSAY METHOD TEXT: IL-12 Induced pSTAT4 in Human PBMC
# Format: cell-based
# CONDITIONS: 1.7 ng/mL IL-12
READOUT LABEL: IC50

Solved cases (5 shown):
CNc1cc(Nc2cccc3ocnc23)nc2c(C(=O)N[C@@H]3CC[C@H]3O)cnn12 (racemic) [I-756]	100 to 500 nM
CNc1cc(-c2cn(C(C)C)c3ncccc23)nc2c(C(=O)N[C@@H]3CC[C@@H]3O)cnn12 [I-578]	< 100 nM
CNc1cc(Nc2cccn([C@@H]3CCC[C@H](OC)C3)c2=O)nc2c(C(=O)NCC(C)(C)CO)cnn12 [I-951]	< 100 nM
CNc1cc(Nc2cccn(-c3ccc(C4CC4)nn3)c2=O)nc2c(C(=O)N[C@H]3C[C@H]3F)cnn12 [I-165]	< 100 nM
CNc1cc(Nc2cccc3ocnc23)nc2c(C(=O)N[C@H]3C[C@H]3F)cnn12 [I-592]	< 100 nM

Return reported IC50. Input molecule: CNc1cc(Nc2cccn([C@H]3CC[C@@H](N4CCOCC4)CC3)c2=O)nc2c(C(=O)NC3CCC3)cnn12 [I-182]
< 100 nM

Fill in reported IC50 for this entry: CNc1cc(Nc2cc(Cl)cn(-c3cnc(C(=O)N(C)C)cn3)c2=O)nc2c(C(=O)N[C@H]3C[C@H]3F)cnn12 [I-319]
< 100 nM

Name the recorded IC50 of the molecule listed here: CNc1cc(Nc2cc(Cl)cn(-c3ccn(C)n3)c2=O)nc2c(C(=O)N[C@H]3C[C@H]3F)cnn12 [I-309]
< 100 nM

Please indicate IC50 recorded for CNc1cc(Nc2cccn(C3CCC4(CC3)OCCO4)c2=O)nc2c(C(=O)N[C@@H]3C[C@@H]3F)cnn12 [I-415]
< 100 nM

Consider the molecule CNc1cc(Nc2cc(Cl)cn([C@H]3CCCOC3)c2=O)nc2c(C(=O)N[C@@H]3C[C@@H]3F)cnn12 [I-772] and give its recorded IC50.
< 100 nM

Read off the recorded IC50 for CNc1cc(Nc2cc(F)cn(-c3ccn(C)n3)c2=O)nc2c(C(=O)NC3CC3)cnn12 [I-378]
< 100 nM
